# Tested on: Pseudomonas aeruginosa
# test.name: Antibacterial activity against Pseudomonas aeruginosa ATCC 27853 assessed as reduction in microbial growth after 16 hrs by broth microdilution method
# Type: functional
# particulars: ATCC 27853, 16 h
Listed here: items and their measured MIC.

# molecule, value.qualifier, MIC [µg/mL]
rows = [
    ("C[C@H]1C(=O)N2c3ccccc3[C@@]3(O)C[C@H]4C(=O)N[C@H](c5nc6ccccc6c(=O)n54)N1[C@@H]23", "≥", 100),
    ("C[C@@H]1N[C@H]2N(C1=O)c1ccccc1[C@@]21C[C@H]2C(=O)N(C)[C@@H](O1)c1nc3ccccc3c(=O)n12", "=", 32),
    ("CO/N=C(\\C(=O)N[C@@H]1C(=O)N2C(C(=O)O)=C(CSc3nc(=O)c(O)nn3C)CS[C@H]12)c1csc(N)n1 [CEFTRIAXONE]", "=", 2),
    ("NCC[C@H](O)C(=O)N[C@@H]1C[C@H](N)[C@@H](O[C@H]2O[C@H](CN)[C@@H](O)[C@H](O)[C@H]2O)[C@H](O)[C@H]1O[C@H]1O[C@H](CO)[C@@H](O)[C@H](N)[C@H]1O [AMIKACIN]", "=", 2),
    ("C[C@@H]1N[C@H]2N(C1=O)c1ccccc1[C@@]21C[C@H]2C(=O)N[C@@H](O1)c1nc3ccccc3c(=O)n12", "≥", 100),
]

---

# System: Acinetobacter baumannii
# test.name: Antibacterial activity against Acinetobacter baumannii ATCC 19606 assessed as reduction in microbial growth after 16 hrs by broth microdilution method
# Type: functional
# particulars: ATCC 19606, 16 h
Listed here: items and their measured MIC.
reported.endpoint: MIC (mg/L)

# smiles.entry, tested.system, value.qualifier, recorded.measurement
data = [
    ("C[C@H]1C(=O)N2c3ccccc3[C@@]3(O)C[C@H]4C(=O)N[C@H](c5nc6ccccc6c(=O)n54)N1[C@@H]23", "Acinetobacter baumannii", "≥", 100),
    ("C[C@@H]1N[C@H]2N(C1=O)c1ccccc1[C@@]21C[C@H]2C(=O)N(C)[C@@H](O1)c1nc3ccccc3c(=O)n12", "Acinetobacter baumannii", "=", 32),
    ("NCC[C@H](O)C(=O)N[C@@H]1C[C@H](N)[C@@H](O[C@H]2O[C@H](CN)[C@@H](O)[C@H](O)[C@H]2O)[C@H](O)[C@H]1O[C@H]1O[C@H](CO)[C@@H](O)[C@H](N)[C@H]1O", "Acinetobacter baumannii", "=", 2),
    ("CO/N=C(\\C(=O)N[C@@H]1C(=O)N2C(C(=O)O)=C(CSc3nc(=O)c(O)nn3C)CS[C@H]12)c1csc(N)n1", "Acinetobacter baumannii", "=", 8),
    ("C[C@@H]1N[C@H]2N(C1=O)c1ccccc1[C@@]21C[C@H]2C(=O)N[C@@H](O1)c1nc3ccccc3c(=O)n12", "Acinetobacter baumannii", "≥", 100),
]

Source: ChEMBL document CHEMBL4342458
